# target desc: His-tagged recombinant human Gal-3 (hGal-3) (Homo sapiens, UniProt P17931)
# Sequence (P17931 whole entry): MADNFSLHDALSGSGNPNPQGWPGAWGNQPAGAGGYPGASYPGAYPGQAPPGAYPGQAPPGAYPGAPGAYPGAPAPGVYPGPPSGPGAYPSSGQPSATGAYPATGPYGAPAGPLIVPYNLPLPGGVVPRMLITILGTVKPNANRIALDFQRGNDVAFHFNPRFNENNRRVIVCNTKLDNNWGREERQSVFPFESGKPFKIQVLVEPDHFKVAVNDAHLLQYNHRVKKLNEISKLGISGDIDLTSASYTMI
# method summary: Gal-3 HTRF assay (hGal-3 / B-ASF binding inhibition)
# condition info: text of Examples 1 to 4; HTRF, 15 nM hGal-3, 15 nM B-ASF
measured endpoint: pIC50
On this scale, pIC50 is minus log10 of a concentration expressed in M (mol/L).

Data request: Would you kindly share the measured pIC50 for COc1cc(-c2cn([C@H]3[C@@H](O)[C@@H](CO)O[C@@H](c4nc(C)nn4-c4cc(Cl)ccc4C(F)(F)F)[C@@H]3O)nn2)cc(F)c1Cl [Example 3] ?
Data returned: 7.85

Data request: Could you do the same for CNC(=O)CO[C@@H]1[C@@H](n2cc(-c3cc(F)c(Cl)c(F)c3)nn2)[C@@H](O)[C@@H](CO)O[C@H]1c1nc(C)nn1-c1cc(Cl)ccc1C(F)(F)F [Example 4] , please?
Data returned: 7.64

Data request: Could you do the same for CO[C@@H]1[C@@H](n2cc(-c3ccc(Br)c(F)c3F)nn2)[C@@H](O)[C@@H](CO)O[C@H]1c1nc(C)nn1-c1ccc2ncsc2c1 [Example 2] , please?
Data returned: 7.89

Data request: Could you do the same for Cc1nc([C@@H]2O[C@H](CO)[C@H](O)[C@H](n3cc(-c4ccc(Br)c(F)c4F)nn3)[C@H]2O)n(-c2ccc3ncsc3c2)n1 [Example 1] , please?
Data returned: 8.15
